Please go through the items and note down their EC50.
# system-tested: hPPAR delta (Homo sapiens, UniProt Q03181)
# Construct: expressed in transfected cells; host or cells: CV-1 cells
# Sequence (Q03181 211-439 limits assumed): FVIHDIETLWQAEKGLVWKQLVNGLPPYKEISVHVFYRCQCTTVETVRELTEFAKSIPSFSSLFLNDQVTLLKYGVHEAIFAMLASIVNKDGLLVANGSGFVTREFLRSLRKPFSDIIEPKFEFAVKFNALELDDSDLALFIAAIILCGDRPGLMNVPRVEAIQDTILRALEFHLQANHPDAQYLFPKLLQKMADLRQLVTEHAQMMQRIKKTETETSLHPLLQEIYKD
# test-name: Transient transfection (transactivation) assay in CV-1 cells, GAL4-PPAR LBD chimera, SPAP reporter
# Assay type: cell-based
# applied-conditions: read-out: EC50 μM HPPARδ
Where a name gives a salt, the structure may show the parent alone.

Can you look up the measured EC50 of Cc1cc(CNC(=O)c2cc(-c3cccc(-c4ccccc4)c3)nn2C)ccc1OC(C)(C)C(=O)O [Example 28] for me?
> 25 µM

Proceed to Cc1cc(CNC(=O)c2cc(-c3ccc(C(C)(C)C)cc3)nn2CC(=O)c2ccccc2)ccc1OC(C)(C)C(=O)O [Example 49]
1.17 µM

Proceed to Cc1cc(CNC(=O)c2cc(-c3ccc(N4CCOCC4)cc3)nn2C)ccc1OC(C)(C)C(=O)O [Example 39]
> 25 µM

Proceed to Cc1cc(CNC(=O)c2cc(-c3ccc(C(C)(C)C)cc3)n(CCN3CCOCC3)n2)ccc1OC(C)(C)C(=O)O [Example 54, hydrochloride]
> 25 µM

Proceed to Cc1cc(CNC(=O)Cc2cc(-c3ccc(C(C)(C)C)cc3)nn2C)ccc1OC(C)(C)C(=O)O [Example 43]
> 25 µM

Proceed to Cc1ccc(CNC(=O)c2cc(-c3ccc(C(C)(C)C)cc3)nn2CCc2ccccc2)cc1OC(C)(C)C(=O)O [Example 51]
> 25 µM

Proceed to Cc1cc(CNC(=O)c2cc(-c3cccc(N4CCCCC4)c3)nn2C)ccc1OC(C)(C)C(=O)O [Example 42]
> 25 µM

The reported numbers originate from patent US20080021030A1.
